Tested on: OVCAR-3
Assay: Growth inhibition of human OVCAR3 cells assessed tumor cell growth at 10^-5 M
Type: functional
Set-up: scale not given: the % may be the effect or the level left
measurement.label: Activity (%)
Answer with a number only, understood to be in %.

// known answers, use as guide
sample.smiles | Activity (%)
Cc1ccc(S(=O)(=O)n2cc(/C=C3\C(=O)N(c4c(Cl)cccc4Cl)c4ccccc43)c3ccccc32)cc1 | 94.9
C=CCn1cc(/C=C2\C(=O)N(c3cccc(Cl)c3)N=C2C)c2ccccc21 | 116.71
CC1=NN(c2cccc(Cl)c2)C(=O)/C1=C\c1cn(C(=O)c2ccc(Cl)cc2)c2ccccc12 | 97.57
CC1=NN(c2cccc(Cl)c2)C(=O)/C1=C\c1ccccn1 | 117.75
CC1=NN(c2cccc(Cl)c2)C(=O)/C1=C\c1cn(C(=O)c2c(Cl)cccc2Cl)c2ccccc12 | 105.51
C#CCN1C(=O)/C(=C\c2cn(CC#C)c3ccccc23)c2ccccc21 | 102

# query: Activity of entry `Cc1ccc(S(=O)(=O)n2cc(/C=C3\C(=O)Nc4ccccc43)c3ccccc32)cc1`
83.7

Using the record for `Cc1ccc(S(=O)(=O)N2C(=O)/C(=C\c3cn(S(=O)(=O)c4ccc(C)cc4)c4ccccc34)c3ccccc32)cc1` , report its Activity.
107.8

Which Activity value belongs to `O=C1/C(=C\c2cn(C(=O)c3ccc(Cl)cc3)c3ccccc23)c2ccccc2N1C(=O)c1ccc(Cl)cc1` ?
84.2

Using the record for `O=C1Nc2ccccc2/C1=C/c1cn(C(=O)c2c(Cl)cccc2Cl)c2ccccc12` , report its Activity.
43

Find the recorded Activity belonging to `CN1C(=O)C(=Cc2coc3ccccc3c2=O)C(=O)N(C)C1=O` and report it.
103.79

* * *

Test system: MCF7
Experiment: Growth inhibition of human MCF7 cells assessed tumor cell growth at 10^-5 M
Assay type: functional
Set-up: scale not given: the % may be the effect or the level left
Measured Activity accompanies every entry in the list below.
Provide only the numeric value, understood in %.

sample.smiles | measurement.label | reported.measurement
CC1=NN(c2cccc(Cl)c2)C(=O)/C1=C\c1cn(S(=O)(=O)c2ccc(C)cc2)c2ccccc12 | Activity | 113.07

Fill in the blank: the reported Activity of `O=C1Nc2ccccc2/C1=C/c1cn(C(=O)c2c(Cl)cccc2Cl)c2ccccc12` is ____.
22.9

Which Activity value is on record for `CC1=NN(c2cccc(Cl)c2)C(=O)/C1=C\c1cn(Cc2ccccc2)c2ccccc12` ?
72.9

Using the record for `CC1=NN(c2cccc(Cl)c2)C(=O)/C1=C\c1coc2ccccc2c1=O` , report its Activity.
86.4

Give its Activity value. Item: `O=C1/C(=C\c2cn(Cc3ccccc3)c3ccccc23)c2ccccc2N1Cc1ccccc1`
3.6

* * *

Listed here: items and their measured log10 of GI50.
System: DU-145
Assay: Growth inhibition of human DU145 cells
Assay type: functional
Field: value | Transform: log10 | Quantity: GI50 | Unit: nM

Which log10 of GI50 reading was recorded for the compound `CC1=NN(c2cccc(Cl)c2)C(=O)/C1=C\c1c(O)ccc2ccccc12` ?
4.85

Please give the measured log10 of GI50 for this compound: `CC1=NN(c2cccc(Cl)c2)C(=O)/C1=C\C=C\c1ccccc1`
3.45

I have this compound here, `O=C1/C(=C\c2ccccn2)c2ccccc2N1c1c(Cl)cccc1Cl` , and I need its recorded log10 of GI50.
3.32

GET /values?readout=log10 of GI50&item= `O=C1/C(=C\c2coc3ccccc3c2=O)c2ccccc2N1c1c(Cl)cccc1Cl`
3.66

Which log10 of GI50 is reported for this compound? `O=C1Nc2ccccc2/C1=C/c1cn(C(=O)c2c(Cl)cccc2Cl)c2ccccc12`
3.43

* * *

Listed compounds paired with reported CC50
Tested on: KM12
Experiment: Growth inhibition of human KM12 cells
Type: functional
Settings: read-out: LC50 (the source's name)
Number in µM, nothing else.

Solved cases (2 shown):
sample.smiles | CC50 (µM)
O=C1Nc2ccccc2/C1=C/c1cn(C(=O)c2c(Cl)cccc2Cl)c2ccccc12 | 8.9
O=C1/C(=C\c2ccccn2)c2ccccc2N1c1c(Cl)cccc1Cl | 6.3

The record that follows has no CC50 shown yet.
Which CC50 is listed for `CC1=NN(c2cccc(Cl)c2)C(=O)/C1=C\C=C\c1ccccc1` ?
5.8

* * *

System: HT-29
Experiment: Growth inhibition of human HT-29 cells assessed tumor cell growth at 10^-5 M
Type: functional
Parameters: scale not given: the % may be the effect or the level left
# maps each entry to its Activity
All answers are understood in %, so give the number only.

Take a look at these entries with their results.
sample.smiles | Activity, %
C=CCn1cc(/C=C2\C(=O)N(c3c(Cl)cccc3Cl)c3ccccc32)c2ccccc21 | 85.4
Cc1ccc(S(=O)(=O)n2cc(/C=C3\C(=O)N(c4c(Cl)cccc4Cl)c4ccccc43)c3ccccc32)cc1 | 89.3
Cc1ccc(S(=O)(=O)N2C(=O)/C(=C\c3cn(S(=O)(=O)c4ccc(C)cc4)c4ccccc34)c3ccccc32)cc1 | 90
O=C1Nc2ccccc2/C1=C/c1cn(C(=O)c2ccc(Cl)cc2)c2ccccc12 | 110
Cc1ccc(S(=O)(=O)n2cc(/C=C3\C(=O)Nc4ccccc43)c3ccccc32)cc1 | 104.5

Could you share what Activity was measured for `CC1=NN(c2cccc(Cl)c2)C(=O)/C1=C\c1cn(S(=O)(=O)c2ccc(C)cc2)c2ccccc12` , tested on HT-29?
122.1

* * *

Tested on: HOP-92
Assay: Growth inhibition of human HOP92 cells assessed tumor cell growth at 10^-5 M
Type: functional
Parameters: scale not given: the % may be the effect or the level left
Listed here: items and their measured Activity.
Answer format: numeric, % implied, no suffix.

For orientation, consider the following solved cases.
sample.smiles | unit.label | Activity
CC1=NN(c2cccc(Cl)c2)C(=O)/C1=C\c1ccccn1 | % | 100.37
C=CCn1cc(/C=C2\C(=O)N(c3c(Cl)cccc3Cl)c3ccccc32)c2ccccc21 | % | 72.1
CN1C(=O)C(=Cc2coc3ccccc3c2=O)C(=O)N(C)C1=O | % | 87.53
O=C1/C(=C\c2ccccn2)c2ccccc2N1c1c(Cl)cccc1Cl | % | -7.93
Cc1ccc(S(=O)(=O)n2cc(/C=C3\C(=O)N(c4c(Cl)cccc4Cl)c4ccccc43)c3ccccc32)cc1 | % | 33.5

What measured Activity goes with `CC1=NN(c2cccc(Cl)c2)C(=O)/C1=C\C=C\c1ccccc1` ?
101.34

I have this compound here, `CC1=NN(c2cccc(Cl)c2)C(=O)/C1=C\c1cn(C(=O)c2ccc(Cl)cc2)c2ccccc12` , and I need its recorded Activity.
99.69

Would you mind telling me what Activity value was observed for `C=CCn1cc(/C=C2\C(=O)N(c3cccc(Cl)c3)N=C2C)c2ccccc21` ?
72.84

Please give the measured Activity for this compound: `O=C1/C(=C\c2coc3ccccc3c2=O)c2ccccc2N1c1c(Cl)cccc1Cl`
32.08

Which Activity value is on record for `CC1=NN(c2cccc(Cl)c2)C(=O)/C1=C\c1cn(Cc2ccccc2)c2ccccc12` ?
94.45

* * *

System: HCC 2998
Test: Growth inhibition of human HCC2998 cells assessed tumor cell growth at 10^-5 M
Assay type: functional
Parameters: scale not given: the % may be the effect or the level left
measurement.label: Activity (%)
Value expressed in %; do not type the unit.

The examples below pair each entry with its known result.
sample.smiles | Activity [%]
CC1=NN(c2cccc(Cl)c2)C(=O)/C1=C\c1c(O)ccc2ccccc12 | -22.22
Cc1ccc(S(=O)(=O)n2cc(/C=C3\C(=O)Nc4ccccc43)c3ccccc32)cc1 | 98.6
O=C1C(=Cc2cn(Cc3ccccc3)c3ccccc23)C(=O)N(Cc2ccccc2)C(=O)N1Cc1ccccc1 | 97.4
C=CCn1cc(/C=C2\C(=O)N(c3c(Cl)cccc3Cl)c3ccccc32)c2ccccc21 | 92.3

As a next step, examine the compound that follows.
// lookup Activity for `CC1=NN(c2cccc(Cl)c2)C(=O)/C1=C\c1cn(S(=O)(=O)c2ccc(C)cc2)c2ccccc12`
88.49

* * *

Tested on: HCT-116
Assay: Growth inhibition of human HCT116 cells
Type: functional
Settings: read-out: LC50 (the source's name)
CC50 values by entry
Report only the number, with the unit µM understood.

Please review the following examples before continuing.
sample.smiles | target.of.assay | unit.label | reported.measurement
O=C1/C(=C\c2ccccn2)c2ccccc2N1c1c(Cl)cccc1Cl | HCT-116 | µM | 6.9
CC1=NN(c2cccc(Cl)c2)C(=O)/C1=C\C=C\c1ccccc1 | HCT-116 | µM | 6.1

# context switch: different molecule, same CC50
So what does the record say about CC50 for `O=C1Nc2ccccc2/C1=C/c1cn(C(=O)c2c(Cl)cccc2Cl)c2ccccc12` ?
6.9

* * *

System: NCI-H522
Assay: Growth inhibition of human NCI-H522 cells assessed tumor cell growth at 10^-5 M
Assay type: functional
Parameters: scale not given: the % may be the effect or the level left
Rule for this label: true (1) means Activity is less than 90%; false (0) means Activity is at least 90%.

sample.smiles | class
Cc1ccc(S(=O)(=O)N2C(=O)/C(=C\c3cn(S(=O)(=O)c4ccc(C)cc4)c4ccccc34)c3ccccc32)cc1 | true (1)
O=C1Nc2ccccc2/C1=C/c1cn(C(=O)c2c(Cl)cccc2Cl)c2ccccc12 | true (1)
Cc1ccc(S(=O)(=O)n2cc(/C=C3\C(=O)Nc4ccccc43)c3ccccc32)cc1 | false (0)
C#CCN1C(=O)/C(=C\c2cn(CC#C)c3ccccc23)c2ccccc21 | false (0)
O=C1/C(=C\c2cn(Cc3ccccc3)c3ccccc23)c2ccccc2N1Cc1ccccc1 | true (1)
C=CCn1cc(/C=C2\C(=O)N(c3cccc(Cl)c3)N=C2C)c2ccccc21 | false (0)
O=C1/C(=C\c2cn(C(=O)c3ccc(Cl)cc3)c3ccccc23)c2ccccc2N1C(=O)c1ccc(Cl)cc1 | true (1)
O=C1/C(=C\c2ccccn2)c2ccccc2N1c1c(Cl)cccc1Cl | true (1)
O=C1Nc2ccccc2/C1=C/c1cn(C(=O)c2ccc(Cl)cc2)c2ccccc12 | true (1)
CC1=NN(c2cccc(Cl)c2)C(=O)/C1=C\c1c(O)ccc2ccccc12 | true (1)

# next molecule below
Consider `CC1=NN(c2cccc(Cl)c2)C(=O)/C1=C\C=C\c1ccccc1` . Does its Activity lie strictly below 90%?
true (1)

The values you see were collected from ChEMBL document CHEMBL1811814.
